Tested on: Plasmodium berghei
Experiment: Screen against P. berghei liver stage (PbLuc), transformed with Luciferase, at 10uM
Format: functional, HepG2
Settings: tested at 10 uM
The whole screen tested about 69,000 compounds, of which about 8,600 (12%) showed an effect of 50% or more. Only a selection was taken, and strong results are over-represented in it overall.
MEASUREMENT_KIND: INHIBITION (%)
Express your answer in %, writing the number without its unit.

COc1ccc(OCCN(C)Cc2nc3c(cnn3C)c(=O)[nH]2)cc1; 38.8

Now for another entry.
Provide value of INHIBITION for this record tested with Plasmodium berghei: CC[C@H]1N(Cc2ccc(OC)cc2)CCC[C@]12CCC(=O)N2C
6.27

* * *

Reported INHIBITION values for a set of compounds
Tested on: Plasmodium berghei
Experiment: Screen against P. berghei liver stage (PbLuc), transformed with Luciferase, at 10uM
Format: functional, HepG2
Settings: tested at 10 uM
Out of some 69,000 compounds screened, about 8,600 (12%) showed an effect of 50% or more. What follows is part of a selection rich in strong results, with near analogues and random picks from the rest.
Give your result as the value with the unit written after it.

// known answers, use as guide
O=c1cc2c(nn1CN1CCC(c3ccccc3)CC1)CCC2; 33.6%
COc1cc(C2SC(C)=Nc3c2c(=O)[nH]n3C2CCCC2)ccc1O (stereo unspecified); 24.7%
O=C(CC1[C@H]2CN(Cc3ccc(F)cc3)C[C@@H]12)N1CCCC1 (stereo partly specified); -7.28%
Cc1nnc(CN(Cc2ccc3c(c2)OCO3)C2CCCCC2)o1; -9.76%
CCc1ncc(C(=O)N2CCCN(C3CCCC3)CC2)cn1; 43.6%

Fill in: INHIBITION of COc1cc(NC(=O)c2ccc(C)c(F)c2)c(C(=O)N(C)C)cc1OC is ___
14%

# lookup: INHIBITION of CCn1c(CC2CCN(C(=O)C3CCOC3)CC2)nn(C)c1=O (stereo unspecified)
56.1%

Fill in: INHIBITION of CN(C)C(=O)CN1CCCC2(CCN(c3ccsc3)C2=O)C1 (stereo unspecified) is ___
40.4%

Can you look up the measured INHIBITION of CCn1c(CC2CCN(C(=O)C3COCCO3)CC2)nn(C)c1=O (stereo unspecified) for me?
9.56%

Any idea what INHIBITION was measured for Cn1cc(N2CCC3(CCCN(Cc4ccoc4)C3)C2=O)cn1 (stereo unspecified) ?
-2.72%

Consider the compound shown here: Cc1nc(C)c(C(=O)NCCNc2ncccc2C(F)(F)F)s1 What is its recorded INHIBITION?
-36.3%

* * *

INHIBITION values, listed per item
Tested on: Plasmodium berghei
Experiment: Screen against P. berghei liver stage (PbLuc), transformed with Luciferase, at 10uM
Format: functional, HepG2
Settings: tested at 10 uM
In all, about 69,000 compounds went through this assay and about 8,600 (12%) showed an effect of 50% or more. The sample as a whole holds a higher share of strong results than the screen did.
Give the value, in units of %, as a plain number.

Previously resolved entries follow.
O=C(NCc1ccon1)Nc1cc(F)ccc1N1CCCCC1; 28.8
c1cc(CNc2ncc(-c3cnccn3)c(C3CC3)n2)ccn1; 75.9
c1cc(CNc2ncc(-c3cnccn3)c([C@@H]3CCCO3)n2)ccn1; 5.34

Suppose we examine the molecule CN1CCN(c2ccc(F)cc2NC(=O)NCc2ccon2)CC1 ; what INHIBITION value has been reported?
51.6

Requested field: INHIBITION. Item: CC1CCCN(Cc2ccc(CNC(=O)NCc3ccon3)cc2)C1 (configuration not stated)
-18.6

What value of INHIBITION has been reported for the following molecule? c1ccc(CN2CC[C@@H]3O[C@H](COCc4ccncc4)CC[C@@H]32)nc1
14.8

* * *

Tested on: Plasmodium berghei
Assay: Screen against P. berghei liver stage (PbLuc), transformed with Luciferase, at 10uM
Type: functional, HepG2
Settings: tested at 10 uM
In all, about 69,000 compounds went through this assay and about 8,600 (12%) showed an effect of 50% or more. The entries come from a sample that favours strong results as a whole.
Measured INHIBITION of individual entries

These solved cases illustrate the format of a correct answer.
NS(=O)(=O)CCNC(=O)c1cc2ccccc2nc1N1CCCC1; 2.91%
O=C1OCCN1C1CCN(Cc2cc3n(n2)CCCNC3)CC1; -78.3%
CCC(C(=O)NCc1csc(-c2ncccn2)n1)n1cccn1 (centres undefined); 60.4%
O=C(NCc1csc(-c2cnccn2)n1)c1cnn2c1CCCC2; 8.7%
Cc1ccccc1CN(Cc1ccc(S(C)(=O)=O)cc1)CC(C)C; 78.9%
OC(c1ccccn1)C1CCN(Cc2cc3n(n2)CCNC3)CC1 (centres undefined); 61.5%

API: value(readout= INHIBITION, system= Plasmodium berghei, query= CCC(C(=O)N1CCN(C(=O)N2CCOCC2)CC1)n1cccn1 (centres undefined) )
33%

What value of INHIBITION on Plasmodium berghei does CN(Cc1ccsc1)C(=O)COC(=O)c1cc(Cl)c[nH]1 have?
14.8%

Hello, I am looking for reported INHIBITION with Plasmodium berghei for CCOCc1ccccc1NC(=O)NCC(C)(O)c1cccs1 (centres undefined) . Could you help?
0.734%

Identify the measured INHIBITION of CCOc1ccc(NC(=O)c2cc3c([nH]c2=O)CCC3)cc1 for Plasmodium berghei.
-29.6%

Give Plasmodium berghei INHIBITION for CC(=O)N(Cc1ncc(C)o1)C1CCN(CCOc2ccccc2)C1 (centres undefined)
8.31%

* * *

Tested on: Plasmodium berghei
Assay: Screen against P. berghei liver stage (PbLuc), transformed with Luciferase, at 10uM
Format: functional, HepG2
Conditions: tested at 10 uM
Among all 69,000 compounds or so, about 8,600 (12%) showed an effect of 50% or more. The sample as a whole holds a higher share of strong results than the screen did.
MEASUREMENT_KIND: INHIBITION (%)
I only need the number, in %, no unit after it.

# annotated cases, reported INHIBITION shown
CCCc1nc(C)cc(N2CCNC(C(=O)Nc3ccc(C)nc3)C2)n1 (stereo not given); 46.1
COc1ccc(CN2CCC(c3nnc(-c4scnc4C)o3)CC2)cc1; 54.5
CN(C)[C@@H]1CCN(C(=O)C2CCOCC2)[C@H]1Cc1ccncc1; 0.804
NC(=O)[C@H]1CCCN(c2nccc(-c3ccncc3)n2)C1; 10
Cn1ncc2c1C(COCC1CC1)CN(Cc1ccc(F)cc1)C2 (stereo not given); -5.69

So what's the measured INHIBITION for this one? Cc1ncsc1-c1nnc(C2CCN(Cc3ccccc3)CC2)o1
27.8

Item O=C(NCc1cccnc1)[C@H]1C[C@@H]2CCN(c3ccncn3)C[C@H]2O1 has what recorded INHIBITION?
48

Any idea what INHIBITION was measured for CC(C)C(NC(=O)C1CCCC1)c1cc(O)nc(-c2cccnc2)n1 (stereo not given) ?
28.925

Fill in: INHIBITION of NC(=O)[C@H]1CCCN(c2nccc(-c3c[nH]nc3-c3cccnc3)n2)C1 is ___
54.5

INHIBITION lookup needed for CCOc1nc2cnccc2n(CC(=O)NCc2ccc(C)cc2)c1=O , thanks.
53.1

Which INHIBITION value belongs to CC(=O)Nc1nc(-c2ccccc2)c[nH]1 ?
58.1

* * *

System: Plasmodium berghei
Assay: Screen against P. berghei liver stage (PbLuc), transformed with Luciferase, at 10uM
Format: functional, HepG2
Conditions: tested at 10 uM
In all, about 69,000 compounds went through this assay and about 8,600 (12%) showed an effect of 50% or more. The list comes from a sample in which strong results are over-represented; it also holds close analogues and randomly drawn compounds.
Returns one of TRUE or FALSE; TRUE when INHIBITION is >= 50%.

Consider the worked cases shown below.
Cc1cc(-c2nccs2)nc(C2CCN(Cc3ccc(F)cc3)CC2)n1; TRUE
Cn1nc(CO)c2c1CCN(c1ncnc3c1CCNCC3)C2; FALSE
Cc1cc(-c2nccs2)nc(C2CCN(Cc3ccncc3)CC2)n1; FALSE
CC(C)C(=O)NCCNC(=O)C12CCC(=O)N1c1cc(Cl)ccc1S2 (stereo unspecified); TRUE

Field: next molecule
Decide: INHIBITION of N#Cc1c2n(c3c(N)ncnc13)CCCCC2 >= 50%?
FALSE

* * *

Test system: Plasmodium berghei
Assay: Screen against P. berghei liver stage (PbLuc), transformed with Luciferase, at 10uM
Type: functional, HepG2
Details: tested at 10 uM
Among all 69,000 compounds or so, about 8,600 (12%) showed an effect of 50% or more. This is one part of a sample in which strong results are shown more often than they occur.
Label 1 when INHIBITION >= 10%; otherwise -1.

Worked examples follow.
O=C1COc2ccc(C(=O)NS(=O)(=O)c3ccccc3F)cc2N1; 1
O=C1COc2cc(C(=O)NS(=O)(=O)c3ccccc3F)ccc2N1; 1

Moving on to another compound below.
Determine whether this compound has INHIBITION no lower than 10%: CCOc1ccc2[nH]c(=O)c(CN3CCN(S(N)(=O)=O)CC3)cc2c1
1
